experimental_protocol: MRT (0 to t) in Sprague-Dawley rat at 10 mg/kg, po by LC-MS/MS analysis
Format: ADME, organism-based
assay_conditions: in vivo
attribute_measured: MRT last (h)
Write it as a number; the unit h goes unstated.

// Input: Cc1c2ccc(N(C)c3ccnc(Nc4ccc(C(=O)Nc5ccccc5N)cc4)n3)cc2nn1C . Output its MRT last only.
2.54

---

tested_system: Histone deacetylase
Format: protein assay, Homo sapiens
Provide the recorded IC50 for the entries that follow.
# unit: µM | format: bare number

Identify measured IC50 corresponding to Cc1c2ccc(N(C)c3ccnc(Nc4cccc(C(=O)NCCCCCC(=O)NO)c4)n3)cc2nn1C
0.18

Answer with reported IC50 of Cc1c2ccc(N(C)c3ccnc(Nc4ccc(C(=O)NCCCCCCC(=O)NO)cc4)n3)cc2nn1C
0.0033

Given the compound Cc1c2ccc(N(C)c3ccnc(Nc4cccc(/C=C/C(=O)NO)c4)n3)cc2nn1C , write its reported IC50.
3

Output IC50 of Cc1c2ccc(N(C)c3ccnc(Nc4ccc(C(=O)NCCCCCC(=O)Nc5ccccc5N)cc4)n3)cc2nn1C
3

---

tested_system: Histone deacetylase
Type: protein assay, Homo sapiens
attribute_measured: IC50 (µM)
Write the answer as a number in µM, unit excluded.

Return value of IC50 for input Cc1c2ccc(N(C)c3ccnc(Nc4ccc(/C=C/C(=O)NO)cc4)n3)cc2nn1C , no commentary.
1.4

Specify measured IC50 for Cc1c2ccc(N(C)c3ccnc(Nc4ccc(C(=O)NCCCCCCCC(=O)NO)cc4)n3)cc2nn1C .
0.025

---

experimental_protocol: Cmax in Sprague-Dawley rat at 2 mg/kg, iv by LC-MS/MS analysis
Type: ADME, organism-based
Design: dose 2 mg/kg, route intravenous
assay_conditions: in vivo
attribute_measured: Cmax

Return Cmax for the following molecule: Cc1c2ccc(N(C)c3ccnc(Nc4ccc(C(=O)Nc5ccccc5N)cc4)n3)cc2nn1C
2.77 µg/mL

---

Assign pIC50 to each entry below.
System: HT-29
experimental_protocol: Antiproliferative activity against human HT-29 cells after 72 hrs by MTT assay
Assay type: functional, cell-based
assay_conditions: HT-29, 72 h
Worth noting: pIC50 values are minus log10 of concentrations stated in mol/L.

Quote pIC50 reported for Cc1c2ccc(N(C)c3ccnc(Nc4ccc(C(=O)Nc5ccccc5N)cc4)n3)cc2nn1C please.
5.97

Determine from records and report pIC50 for Nc1ccccc1NC(=O)c1ccc(CNC(=O)OCc2cccnc2)cc1
5.51

Input Cc1c2ccc(N(C)c3ccnc(Nc4ccc(/C=C/C(=O)NO)cc4)n3)cc2nn1C , output reported pIC50.
5.53

Consider the compound Cc1c2ccc(N(C)c3ccnc(Nc4ccc(C(=O)NCCCCCCCC(=O)Nc5ccccc5N)cc4)n3)cc2nn1C . State its measured pIC50.
5.53

Return pIC50 for the following compound: Cc1c2ccc(N(C)c3ccnc(Nc4ccc(C(=O)NCCCCCCC(=O)NO)cc4)n3)cc2nn1C
5.60

---

experimental_protocol: Clearance in Sprague-Dawley rat at 2 mg/kg, iv by LC-MS/MS analysis
Type: ADME, organism-based
assay_conditions: in vivo
attribute_measured: clearance
Please provide the amount together with its unit, number first.

Quote clearance reported for Cc1c2ccc(N(C)c3ccnc(Nc4ccc(C(=O)Nc5ccccc5N)cc4)n3)cc2nn1C please.
14.6 mL/min/kg

---

experimental_protocol: MRT (0 to t) in Sprague-Dawley rat at 2 mg/kg, iv by LC-MS/MS analysis
Format: ADME, organism-based
assay_conditions: in vivo
attribute_measured: MRT last (h)
Numeric only. Scale: h

Supply measured MRT last of Cc1c2ccc(N(C)c3ccnc(Nc4ccc(C(=O)Nc5ccccc5N)cc4)n3)cc2nn1C in your reply.
1.13

---

attribute_measured: pIC50
Kindly note that pIC50 refers to -log10 of the concentration in mol/L and answer with the value alone.

# lookup: Fibroblast growth factor receptor 1 (Homo sapiens) pIC50, key = Cc1c2ccc(N(C)c3ccnc(Nc4ccc(C(=O)Nc5ccccc5N)cc4)n3)cc2nn1C
# Sequence (P11362 whole entry): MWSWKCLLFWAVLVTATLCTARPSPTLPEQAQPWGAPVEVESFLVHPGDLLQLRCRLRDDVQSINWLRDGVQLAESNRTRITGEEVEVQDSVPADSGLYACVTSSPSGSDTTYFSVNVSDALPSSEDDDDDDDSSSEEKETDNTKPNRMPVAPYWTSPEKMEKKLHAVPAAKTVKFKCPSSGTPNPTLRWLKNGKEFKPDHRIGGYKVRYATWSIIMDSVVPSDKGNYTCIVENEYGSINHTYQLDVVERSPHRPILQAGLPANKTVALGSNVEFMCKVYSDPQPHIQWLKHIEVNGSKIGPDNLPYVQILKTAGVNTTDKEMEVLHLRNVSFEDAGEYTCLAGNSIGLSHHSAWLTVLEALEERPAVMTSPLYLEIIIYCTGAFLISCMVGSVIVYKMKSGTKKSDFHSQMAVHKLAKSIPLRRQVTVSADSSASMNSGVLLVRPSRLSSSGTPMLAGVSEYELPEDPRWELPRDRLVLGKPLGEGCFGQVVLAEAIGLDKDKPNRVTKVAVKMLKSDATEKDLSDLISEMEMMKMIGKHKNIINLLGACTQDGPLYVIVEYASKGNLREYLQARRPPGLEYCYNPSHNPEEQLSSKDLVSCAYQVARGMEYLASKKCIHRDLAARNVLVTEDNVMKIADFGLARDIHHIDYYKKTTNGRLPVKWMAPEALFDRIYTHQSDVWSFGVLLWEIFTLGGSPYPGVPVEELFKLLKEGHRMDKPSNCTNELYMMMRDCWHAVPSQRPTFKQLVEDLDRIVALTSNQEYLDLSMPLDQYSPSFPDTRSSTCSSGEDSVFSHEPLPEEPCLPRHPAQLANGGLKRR
6.72

---

Please go through the items and note down their IC50.
tested_system: Histone deacetylase
Format: protein assay, Homo sapiens
Give the value in µM but do not write µM after it.

Determine from records and report IC50 for Cc1c2ccc(N(C)c3ccnc(Nc4ccc(C(=O)NCCCCC(=O)NO)cc4)n3)cc2nn1C
0.68

Determine from records and report IC50 for Cc1c2ccc(N(C)c3ccnc(Nc4ccc(C(=O)NCCCCC(=O)Nc5ccccc5N)cc4)n3)cc2nn1C
15.1

Complete the entry with IC50 for Cc1ccc(Nc2nccc(N(C)c3ccc4c(C)n(C)nc4c3)n2)cc1C(=O)NCCCCCC(=O)NO
0.82

Give a short answer stating reported IC50 for Cc1c2ccc(N(C)c3ccnc(Nc4ccc(C(=O)NCCCC(=O)Nc5ccccc5N)cc4)n3)cc2nn1C .
19

---

Provide the recorded pIC50 for the entries that follow.
tested_system: Vascular endothelial growth factor receptor 2 (Homo sapiens, UniProt P35968)
Sequence (P35968 whole entry): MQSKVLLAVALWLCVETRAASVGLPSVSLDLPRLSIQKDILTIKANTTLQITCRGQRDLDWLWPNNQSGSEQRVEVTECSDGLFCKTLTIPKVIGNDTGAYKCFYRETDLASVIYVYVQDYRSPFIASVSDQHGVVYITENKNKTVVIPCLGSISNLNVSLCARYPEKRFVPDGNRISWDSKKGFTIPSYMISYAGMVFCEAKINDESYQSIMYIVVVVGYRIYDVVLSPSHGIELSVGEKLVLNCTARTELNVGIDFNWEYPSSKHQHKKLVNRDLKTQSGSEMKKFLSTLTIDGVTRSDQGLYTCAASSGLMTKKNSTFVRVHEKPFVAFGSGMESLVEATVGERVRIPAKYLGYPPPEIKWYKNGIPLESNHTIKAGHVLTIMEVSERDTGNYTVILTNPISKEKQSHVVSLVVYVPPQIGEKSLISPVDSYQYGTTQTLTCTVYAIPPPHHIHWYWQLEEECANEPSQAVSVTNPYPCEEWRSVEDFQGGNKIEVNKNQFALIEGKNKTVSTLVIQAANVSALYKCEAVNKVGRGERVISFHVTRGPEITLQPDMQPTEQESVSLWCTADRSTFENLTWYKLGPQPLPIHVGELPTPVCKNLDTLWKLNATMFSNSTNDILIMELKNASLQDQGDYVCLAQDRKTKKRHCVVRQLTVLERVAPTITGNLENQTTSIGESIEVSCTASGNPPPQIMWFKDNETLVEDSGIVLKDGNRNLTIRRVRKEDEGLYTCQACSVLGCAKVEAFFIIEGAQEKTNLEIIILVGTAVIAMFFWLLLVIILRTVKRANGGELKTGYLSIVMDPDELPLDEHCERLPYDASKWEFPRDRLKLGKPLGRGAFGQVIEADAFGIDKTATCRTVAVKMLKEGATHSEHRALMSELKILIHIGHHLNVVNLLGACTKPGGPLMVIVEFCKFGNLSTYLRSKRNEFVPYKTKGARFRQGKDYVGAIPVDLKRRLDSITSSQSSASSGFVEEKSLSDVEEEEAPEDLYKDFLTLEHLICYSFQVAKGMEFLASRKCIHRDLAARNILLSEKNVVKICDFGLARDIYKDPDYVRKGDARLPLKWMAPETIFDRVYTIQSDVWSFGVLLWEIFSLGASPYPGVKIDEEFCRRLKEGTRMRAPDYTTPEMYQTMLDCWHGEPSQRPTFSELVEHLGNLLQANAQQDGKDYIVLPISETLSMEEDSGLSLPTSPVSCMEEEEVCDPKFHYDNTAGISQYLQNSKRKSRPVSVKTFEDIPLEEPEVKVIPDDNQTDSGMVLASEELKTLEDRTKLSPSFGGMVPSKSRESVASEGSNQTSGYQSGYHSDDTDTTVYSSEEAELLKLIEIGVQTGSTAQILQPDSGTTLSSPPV
// pIC50 is dimensionless: -log10 of concentration (M)

In one line, give reported pIC50 of the entry Cc1c2ccc(N(C)c3ccnc(Nc4ccc(C(=O)NCCCCCCC(=O)NO)cc4)n3)cc2nn1C .
7.34

For the compound Cc1c2ccc(N(C)c3ccnc(Nc4ccc(C(=O)Nc5ccccc5N)cc4)n3)cc2nn1C , give its measured pIC50 value.
7.43

---

Answer each item with its documented pIC50.
Expect pIC50 as a plain number equal to -log10 of the molar concentration.

Answer briefly: pIC50 recorded on Histone deacetylase 2 (Homo sapiens) for Cc1c2ccc(N(C)c3ccnc(Nc4ccc(C(=O)NCCCCCCC(=O)NO)cc4)n3)cc2nn1C
Sequence (Q92769 whole entry): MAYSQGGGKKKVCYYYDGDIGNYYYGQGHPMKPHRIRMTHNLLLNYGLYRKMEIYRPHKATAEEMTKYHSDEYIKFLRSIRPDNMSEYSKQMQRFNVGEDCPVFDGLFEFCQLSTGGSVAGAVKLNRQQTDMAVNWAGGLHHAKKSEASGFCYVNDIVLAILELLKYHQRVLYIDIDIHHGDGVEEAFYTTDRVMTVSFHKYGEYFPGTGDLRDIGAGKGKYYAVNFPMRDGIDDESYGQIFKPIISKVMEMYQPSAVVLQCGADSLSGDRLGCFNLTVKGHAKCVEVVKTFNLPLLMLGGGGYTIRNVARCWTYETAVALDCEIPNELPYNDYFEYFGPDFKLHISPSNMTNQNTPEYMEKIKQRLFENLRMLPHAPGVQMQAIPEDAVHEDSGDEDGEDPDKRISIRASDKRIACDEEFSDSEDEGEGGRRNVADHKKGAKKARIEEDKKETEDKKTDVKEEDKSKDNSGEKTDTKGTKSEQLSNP
6.42

State pIC50 (Histone deacetylase 2 (Homo sapiens)) of Cc1c2ccc(N(C)c3ccnc(Nc4ccc(C(=O)NCCCCCCCC(=O)Nc5ccccc5N)cc4)n3)cc2nn1C .
5.90

Output reported pIC50 of the molecule Cc1c2ccc(N(C)c3ccnc(Nc4ccc(/C=C/C(=O)NO)cc4)n3)cc2nn1C on Histone deacetylase 2 (Homo sapiens).
5.28

---

tested_system: Vascular endothelial growth factor receptor 2 (Homo sapiens)
experimental_protocol: Inhibition of VEGFR-2 (unknown origin) at 0.2 uM after 40 mins by kinase-Glo assay relative to control
attribute_measured: inhibition (%)
Express it in %; write the number only.

Give inhibition for Cc1c2ccc(N(C)c3ccnc(Nc4ccc(C(=O)NO)cc4)n3)cc2nn1C
99

Give a short answer stating reported inhibition for Cc1c2ccc(N(C)c3ccnc(Nc4ccc(C(=O)NCCCCCC(=O)Nc5ccccc5N)cc4)n3)cc2nn1C .
95

// Input: Cc1c2ccc(N(C)c3ccnc(Nc4cccc(C(=O)Nc5ccccc5N)c4)n3)cc2nn1C . Output its inhibition only.
63

Identify measured inhibition associated with Cc1c2ccc(N(C)c3ccnc(Nc4ccc(C(=O)NCCC(=O)NO)cc4)n3)cc2nn1C
99

Determine from records and report inhibition for Cc1c2ccc(N(C)c3ccnc(Nc4ccc(C(=O)NCCCCCCC(=O)NO)cc4)n3)cc2nn1C
93

Quickly give me recorded inhibition for Cc1c2ccc(N(C)c3ccnc(Nc4ccc(C(=O)NCCCC(=O)Nc5ccccc5N)cc4)n3)cc2nn1C
96

Determine its reported inhibition: Cc1c2ccc(N(C)c3ccnc(Nc4ccc(C(=O)NCCCC(=O)NO)cc4)n3)cc2nn1C
99

Give me measured inhibition, please, for this compound: Cc1c2ccc(N(C)c3ccnc(Nc4ccc(C(=O)Nc5ccccc5N)cc4)n3)cc2nn1C
100

Give reported inhibition value for Cc1c2ccc(N(C)c3ccnc(Nc4cccc(C(=O)NO)c4)n3)cc2nn1C
77

Tell me inhibition reported for Cc1c2ccc(N(C)c3ccnc(Nc4ccc(C(=O)NCCCCC(=O)Nc5ccccc5N)cc4)n3)cc2nn1C
94

Report inhibition, nothing else, for this compound: Cc1c2ccc(N(C)c3ccnc(Nc4ccc(C(=O)NCCC(=O)Nc5ccccc5N)cc4)n3)cc2nn1C
97

State, in one line, measured inhibition of Cc1c2ccc(N(C)c3ccnc(Nc4ccc(C(=O)NCCCCCCCC(=O)NO)cc4)n3)cc2nn1C
92

Complete the entry with inhibition for Cc1c2ccc(N(C)c3ccnc(Nc4ccc(C(=O)NCC(=O)NO)cc4)n3)cc2nn1C
95

Answer with the recorded inhibition for the compound listed here: Cc1c2ccc(N(C)c3ccnc(Nc4cccc(/C=C/C(=O)NO)c4)n3)cc2nn1C
97

Output inhibition of Cc1c2ccc(N(C)c3ccnc(Nc4ccc(C(=O)NCCCCC(=O)NO)cc4)n3)cc2nn1C
94

---

experimental_protocol: Oral bioavailability in Sprague-Dawley rat at 10 mg/kg by LC-MS/MS analysis
Assay type: ADME, organism-based
assay_conditions: in vivo
attribute_measured: bioavailability (%)
# output: bare number, implied unit %

Indicate the recorded bioavailability value for this compound: Cc1c2ccc(N(C)c3ccnc(Nc4ccc(C(=O)Nc5ccccc5N)cc4)n3)cc2nn1C
72

---

System: KG-1
experimental_protocol: Antiproliferative activity against human KG1 cells after 72 hrs by MTT assay
Format: functional, cell-based
assay_conditions: KG-1, 72 h
Please respond with reported pIC50 for every item in the list.
Give only the number. pIC50 is defined as minus log10 of concentration in molar units.

In one line, give reported pIC50 of the entry Cc1c2ccc(N(C)c3ccnc(Nc4ccc(/C=C/C(=O)NO)cc4)n3)cc2nn1C .
5.99

Respond only with pIC50 recorded for Cc1c2ccc(N(C)c3ccnc(Nc4ccc(C(=O)NCCCCCCC(=O)Nc5ccccc5N)cc4)n3)cc2nn1C
5.50

Item Cc1c2ccc(N(C)c3ccnc(Nc4ccc(C(=O)NCCCCCCC(=O)NO)cc4)n3)cc2nn1C : provide pIC50
5.80
